# System: Cell membrane
# EXPERIMENTAL_PROTOCOL: Induction of cytoplasmic membrane permeabilization in Escherichia coli TG1 assessed as loss of surface smoothness at 2 times of MIC measured after 30 to 60 mins by SEM analysis
# MEASUREMENT_CONDITIONS: time 30-60 min
Calls of active or inactive are those of the source. The calls are words filed in the database; no cut-off is given here. Bridges are numbered along the chain shown (N, C = ends). Roman numbers before positions name the chains, in order.

SUBSTANCE	Activity
I: H-KKLLGKNWKLMKK-NH2 / II: H-KKLLGKNWKLMK / III: H-KKLLGKNWKLM / IV: H-KKLLGKNWKLM (amide I:12-IV:C, I:13-II:C, II:12-III:C)	Active
I: H-LLKKVLKAAAKKK-NH2 / II: H-LLKKVLKAAAKK / III: H-LLKKVLKAAAK / IV: H-LLKKVLKAAAK (amide I:12-IV:C, I:13-II:C, II:12-III:C)	Active
I: H-TLLKKVLKAAAKKK-NH2 / II: H-TLLKKVLKAAAKK / III: H-TLLKKVLKAAAK / IV: H-TLLKKVLKAAAK (amide I:13-IV:C, I:14-II:C, II:13-III:C)	Active
I: H-GRFKRFRKKLKK-NH2 / II: H-GRFKRFRKKLK / III: H-GRFKRFRKKL / IV: H-GRFKRFRKKL (amide I:11-IV:C, I:12-II:C, II:11-III:C)	Active

Origin of measurements: ChEMBL document CHEMBL5614437
